target-of-assay: Artificial Cell Surface (ACS): biotinylated cell surface proteins from mononuclear cells coupled to streptavidin-sepharose
assay-overview: adsorption on ACS column, MALDI-TOF MS
endpoint-name: Percent Absorbed (%)
Dear colleague, please return just the value in %, with no unit written.

The examples below pair each entry with its known result.
| binder | display-unit | reported-result |
| --- | --- | --- |
| KVPQVSTPTLVEVSR [trypsin-generated albumin fragment SEQ ID NO: 195 …] | % | 64 |
| LGEENFKALVLIAFAQYLQQCPFEDHVKLVNEVTEFAKTCVA [Asp-N-generated albumin fragment SEQ ID NO: 228] | % | 100 |
| CCAAADPHECYAK [trypsin-generated albumin fragment SEQ ID NO: 204 …] | % | 32 |
| DDKETCFAEEGKKLVAASQAALGL [Asp-N-generated albumin fragment SEQ ID NO: 218] | % | 100 |
| ICTLSEKERQIKKQTALVELVKHKPKATKEQLKAVM [Asp-N-generated albumin fragment SEQ ID NO: 225] | % | 100 |
| YICENQDSISSK [trypsin-generated albumin fragment SEQ ID NO: 214 …] | % | 3 |

Consider the binder DDNPNLPR [trypsin-generated albumin fragment SEQ ID NO: 216 DDNPNLPR] and give its measured Percent Absorbed.
1

From: patent US20170298096A1
